The measurements presented in this section are drawn from PubChem BioAssay AID504467.

# experimentSummary: qHTS screen for small molecules that inhibit ELG1-dependent DNA repair in human embryonic kidney (HEK293T) cells expressing luciferase-tagged ELG1; further: nearly all actives have a fitted effect of over 55% in size
# conditionSet: HEK293T ELG1-luciferase reporter, luminescence, 16 h, DNA damage induced by 5-fluorouridine; series mostly up to 46.1 µM
In all, about 330,000 compounds went through this assay and about 7,700 (2.3%) were called active. About 26% were inconclusive and are not listed. The call rests on the fitted dose curve; in most records, active means well fitted inhibition curve with a large enough effect; inconclusive means small, poorly fitted or top-dose-only effect, or effect the other way; inactive means flat fitted curve, though single readings scatter. The sample holds actives, similar compounds and a random draw of the others, so the mix is not that of the screen.
Possible outcomes: active, inactive

| molecule | classification |
| --- | --- |
| COc1ccc(Cl)cc1NC(=O)CN(C)CC(=O)Nc1ccc2c(c1)OCO2 | inactive |
| Cc1cn(COC/C=C/c2ccccc2)c(=O)[nH]c1=O | inactive |
| Cn1c(N)c(C(=O)COC(=O)c2cccc(S(=O)(=O)N3CCOCC3)c2)c(=O)n(C)c1=O | inactive |
| CC(C)n1ncc2c(C(=O)NCc3ccccc3CN(C)C)cc(C3CC3)nc21 | inactive |
| Cc1ccc(Oc2nc(-c3ccccn3)nc3ccccc23)cc1 | active |
| O=C(CSCc1ccc(Cl)cc1)N1CCN(Cc2ccc3c(c2)OCO3)CC1 | active |
| COc1ccccc1Oc1nc(-c2cccnc2)nc2ccccc12 | inactive |
| Cc1[nH]c(=O)c(C(=O)/C=C/c2ccccc2)c2c1CCCC2 | active |
| CCN1C(=O)[C@@H]2[C@@H](c3ccc(-c4ccccc4)cc3)N3CCCC[C@@]3(C(=O)OC)[C@@H]2C1=O | inactive |
| O=C(CN1C(=O)NC2(CCCCCCC2)C1=O)NCc1ccc(F)cc1 | inactive |
| COc1ccccc1CNS(=O)(=O)c1cc(C(=O)NCc2ccccn2)c(Cl)cc1Cl | inactive |
| O=C(CN1C(=O)c2cccc3cccc(c23)C1=O)N1CCCCC1 | inactive |
| COc1ccc(CCNC(=O)COC(=O)c2cc(=O)c3ccccc3o2)cc1 | inactive |
| CN(C(=O)COC(=O)Cc1ccccc1[N+](=O)[O-])C1CCS(=O)(=O)C1 (stereo not drawn) | inactive |
| N#Cc1ccc(Oc2cc(C(F)(F)F)nc(-c3ccccn3)n2)cc1 | inactive |
| O=C(c1cc(=O)c2ccccc2o1)N1CCN(c2ccccc2)CC1 | inactive |
| O=C(CN1CCN(c2ccccc2O)CC1)NC(=O)NCc1ccccc1 | inactive |
| O=C(COC(=O)c1cc[n+]([O-])cc1)Nc1ccc(Cl)c(C(F)(F)F)c1 | inactive |
| O=C(c1cccs1)N1CCN(Cc2ccc3c(c2)OCO3)CC1 | inactive |
| COc1ccc(-c2oc3ncnc(NCCCO)c3c2-c2ccc(OC)cc2)cc1 | active |
| O=C(COC(=O)c1ccc([N+](=O)[O-])o1)NC12CC3CC(CC(C3)C1)C2 | inactive |
| CCC1(c2ccccc2)NC(=O)N(CC(=O)Nc2ccccc2C(=O)NC2CCCC2)C1=O (stereo not drawn) | inactive |
| COc1ccc2oc(C(=O)N(CC(C)C)C3CCS(=O)(=O)C3)c(C)c2c1 (stereo not drawn) | inactive |
| O=C(COc1ccc([N+](=O)[O-])cc1Cl)Nc1ccc2[nH]c(=O)[nH]c2c1 | inactive |
| Cc1ccc(-n2nc3c(=O)n(C(C)C(=O)NCc4ccc5c(c4)OCO5)nc(C)c3c2C)cc1 (stereo not drawn) | inactive |
| COc1cc2c(cc1OC)CN(C(=O)c1cc(=O)c3ccccc3o1)CC2 | active |
| NC(=O)c1sc2nc3c(c(-c4ccccc4)c2c1N)CCC3 | active |
| O=C(CN(CC1CCCO1)C(=O)CNS(=O)(=O)c1ccc(Cl)cc1)NCc1ccccc1 (stereo not drawn) | inactive |
